Answer each item with its documented Ki.
target: Neuronal acetylcholine receptor; alpha3/beta4 (Rattus norvegicus, UniProt P04757+P12392); experiment: Displacement of [3H]epibatidine from rat alpha3beta4 nAChR expressed in HEK293 cell membranes after 4 hrs by scintillation counting method
Sequence (P04757 whole entry): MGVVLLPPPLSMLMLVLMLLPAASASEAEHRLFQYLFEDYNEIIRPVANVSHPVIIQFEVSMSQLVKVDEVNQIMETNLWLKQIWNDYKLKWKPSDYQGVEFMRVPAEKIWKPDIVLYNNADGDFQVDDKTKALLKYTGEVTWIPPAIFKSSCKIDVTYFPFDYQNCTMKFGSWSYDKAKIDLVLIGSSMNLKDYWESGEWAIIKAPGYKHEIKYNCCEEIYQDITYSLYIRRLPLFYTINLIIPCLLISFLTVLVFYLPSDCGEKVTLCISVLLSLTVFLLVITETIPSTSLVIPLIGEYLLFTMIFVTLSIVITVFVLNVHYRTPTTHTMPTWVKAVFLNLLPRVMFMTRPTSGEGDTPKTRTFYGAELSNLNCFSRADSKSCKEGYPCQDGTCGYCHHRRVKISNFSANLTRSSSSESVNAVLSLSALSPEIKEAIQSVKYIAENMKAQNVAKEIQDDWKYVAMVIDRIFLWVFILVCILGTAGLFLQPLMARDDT
Sequence (P12392 whole entry): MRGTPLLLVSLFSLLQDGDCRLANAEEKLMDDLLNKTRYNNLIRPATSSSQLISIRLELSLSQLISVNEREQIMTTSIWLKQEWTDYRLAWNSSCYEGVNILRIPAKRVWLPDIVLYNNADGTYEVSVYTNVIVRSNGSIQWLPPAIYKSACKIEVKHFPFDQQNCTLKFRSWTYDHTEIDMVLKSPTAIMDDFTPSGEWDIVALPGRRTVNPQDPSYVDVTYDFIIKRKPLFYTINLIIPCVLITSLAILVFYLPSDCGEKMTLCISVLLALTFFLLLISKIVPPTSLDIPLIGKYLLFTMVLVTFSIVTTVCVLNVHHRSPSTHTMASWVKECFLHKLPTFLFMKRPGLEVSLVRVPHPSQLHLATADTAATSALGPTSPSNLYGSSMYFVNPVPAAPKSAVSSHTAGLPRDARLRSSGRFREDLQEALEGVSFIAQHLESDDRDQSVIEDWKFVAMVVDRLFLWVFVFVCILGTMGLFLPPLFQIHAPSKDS
One number for each entry, in µM.

>  <MOLECULE>
COc1ccc2c(c1)CC[N+](C)(C)C2

>  <Ki (µM)>
9.3

$$$$

Provide the reported Ki of each entry below, same order.
1. COc1ccc2c(c1)C1CCC[N+]1(C)CC2 (stereo unspecified)
2. C[N+]12CCC[C@@H]1c1cc3c(cc1CC2)OCO3 (stereo partly specified)
3. COc1cc2c(cc1OCc1ccccc1)CCN1CCCC21 (stereo unspecified)
4. c1c2c(cc3c1OCO3)[C@H]1CCCN1CC2
5. COc1cc2c(cc1OCc1ccccc1)C[N+](C)(C)CC2
6. C[N+]1(C)CCc2cc3c(cc2C1)OCO3
7. COc1cc2c(cc1OCc1ccccc1)CC[N+](C)(C)C2
8. COc1cc2c(cc1OC)[C@H]1CCC[N+]1(C)CC2 (stereo partly specified)

1: 9.3; 2: 11; 3: 100; 4: 100; 5: 30; 6: 50; 7: 30; 8: 25

These entries and their values trace back to ChEMBL document CHEMBL4052830.
